pIC50 overview
- Tested System: UniProtKB P24557
- Sequence (P24557 whole entry): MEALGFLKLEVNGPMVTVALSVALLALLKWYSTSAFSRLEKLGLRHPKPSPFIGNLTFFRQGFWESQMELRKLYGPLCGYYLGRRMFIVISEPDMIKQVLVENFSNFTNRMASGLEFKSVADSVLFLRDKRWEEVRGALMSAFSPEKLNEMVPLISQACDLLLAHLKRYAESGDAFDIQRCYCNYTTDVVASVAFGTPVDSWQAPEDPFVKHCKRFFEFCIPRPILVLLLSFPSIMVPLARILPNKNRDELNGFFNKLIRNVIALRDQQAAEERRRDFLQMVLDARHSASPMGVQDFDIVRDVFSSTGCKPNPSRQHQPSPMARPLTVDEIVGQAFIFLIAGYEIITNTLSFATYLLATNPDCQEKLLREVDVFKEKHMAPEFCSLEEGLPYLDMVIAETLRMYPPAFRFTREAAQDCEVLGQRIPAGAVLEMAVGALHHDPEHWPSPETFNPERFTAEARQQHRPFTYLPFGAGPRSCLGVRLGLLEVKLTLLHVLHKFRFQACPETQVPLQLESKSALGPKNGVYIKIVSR
- Protocol Details: In vitro Inhibition of thromboxane synthase from human blood platelet microsomes
In plain terms, pIC50 is the concentration in mol/L turned into minus its base-10 logarithm.

Worked cases, answers included:
[[record]]
compound = "COc1ccccc1OC(C)(C)C1OCC(C/C=C\\CCC(=O)O)C(c2cccnc2)O1 (stereo not given)"
value_reported = 7.22

[[record]]
compound = "CC(C)(Oc1ccc(C#N)cc1)C1OCC(C/C=C\\CCC(=O)O)C(c2cccnc2)O1 (stereo not given)"
value_reported = 7.34

[[record]]
compound = "O=C(O)CC/C=C\\CC1COC(c2ccc3ccccc3c2)OC1c1cccnc1 (stereo not given)"
value_reported = 7.30

[[record]]
compound = "CC(C)(Oc1ccc(Br)cc1)C1OCC(C/C=C\\CCC(=O)O)C(c2cccnc2)O1 (stereo in doubt; 7q)"
value_reported = 7.66


query: Quick check: pIC50 on UniProtKB P24557, item N#Cc1ccc(C2OCC(C/C=C\CCC(=O)O)C(c3cccnc3)O2)cc1 (stereo not given) ?
result: 7.62

---

pIC50 overview
- Tested System: Thromboxane-A synthase (Homo sapiens)
- Protocol Details: In vitro Inhibition of thromboxane synthase from human blood platelet microsomes
In plain terms, pIC50 is the concentration in mol/L turned into minus its base-10 logarithm.

[[record]]
compound = "O=C(O)CC/C=C\\CC1COC(c2ccc([N+](=O)[O-])cc2)OC1c1cccnc1 (centres undefined)"
value_reported = 7.41


query: What value of pIC50 has been recorded for this entry: CSc1ccc(OC(C)(C)C2OCC(C/C=C\CCC(=O)O)C(c3cccnc3)O2)c([N+](=O)[O-])c1 (centres undefined)
result: 7.66

query: One more compound: CC(C)(Sc1ccccc1C#N)C1OCC(C/C=C\CCC(=O)O)C(c2cccnc2)O1 (centres undefined)
result: 7.40

query: One more compound: Cc1ccc(OC(C)(C)C2OCC(C/C=C\CCC(=O)O)C(c3cccnc3)O2)c(C#N)c1 (stereo in doubt; 7ac)
result: 7.30

---

- Tested System: Thromboxane-A synthase (Homo sapiens, UniProt P24557)
- Protocol Details: In vitro Inhibition of thromboxane synthase from human blood platelet microsomes
Endpoint Label: pIC50
In plain terms, pIC50 is the concentration in mol/L turned into minus its base-10 logarithm.

[[record]]
compound = "Cc1ccc(OC(C)(C)C2OCC(C/C=C\\CCC(=O)O)C(c3cccnc3)O2)cc1 (stereo not drawn)"
endpoint_label = "pIC50"
value_reported = 6.44

[[record]]
compound = "CC(C)(Oc1ccccc1O)C1OCC(C/C=C\\CCC(=O)O)C(c2cccnc2)O1 (stereo not drawn)"
endpoint_label = "pIC50"
value_reported = 7.49

[[record]]
compound = "O=C(O)CC/C=C\\CC1COC(c2ccc(Cl)cc2Cl)OC1c1cccnc1 (stereo not drawn)"
endpoint_label = "pIC50"
value_reported = 7.38

[[record]]
compound = "CC(C)(Oc1ccc(F)cc1)C1OCC(C/C=C\\CCC(=O)O)C(c2cccnc2)O1 (stereo not drawn)"
endpoint_label = "pIC50"
value_reported = 7.29

[[record]]
compound = "COc1ccc(SC(C)(C)C2OCC(C/C=C\\CCC(=O)O)C(c3cccnc3)O2)c([N+](=O)[O-])c1 (stereo not drawn)"
endpoint_label = "pIC50"
value_reported = 7.40

[[record]]
compound = "Cc1ccc(OC(C)(C)C2OCC(C/C=C\\CCC(=O)O)C(c3cccnc3)O2)c(C#N)c1 (stereo in doubt; 7af)"
endpoint_label = "pIC50"
value_reported = 7.60

[[record]]
compound = "CC(C)(Cc1ccccc1)C1OCC(C/C=C\\CCC(=O)O)C(c2cccnc2)O1 (stereo not drawn)"
endpoint_label = "pIC50"
value_reported = 7.92

[[record]]
compound = "O=C(O)CC/C=C\\CC1COC(c2ccco2)OC1c1cccnc1 (stereo not drawn)"
endpoint_label = "pIC50"
value_reported = 6.79


query: What value of pIC50 has been recorded for this entry: Cc1cccc(C#N)c1OC(C)(C)C1OCC(C/C=C\CCC(=O)O)C(c2cccnc2)O1 (stereo not drawn)
result: 7.05

query: One more compound: CC(C)(Cc1ccc(F)cc1)C1OCC(C/C=C\CCC(=O)O)C(c2cccnc2)O1 (stereo not drawn)
result: 7.35

query: One more compound: O=C(O)CC/C=C\CC1COC(c2ccc(Cl)c(Cl)c2)OC1c1cccnc1 (stereo not drawn)
result: 7.38

query: One more compound: CC(C)(Cc1ccccc1C#N)C1OCC(C/C=C\CCC(=O)O)C(c2cccnc2)O1 (stereo not drawn)
result: 7.43

---

- Tested System: UniProt P24557
- Protocol Details: In vitro Inhibition of thromboxane synthase from human blood platelet microsomes
IC50 overview
State just the number; it will be interpreted in nM.

Worked cases, answers included:
[[record]]
compound = "CC(C)(Oc1ccccc1C#N)C1OCC(C/C=C\\CCC(=O)O)C(c2cccnc2)O1 (centres undefined)"
endpoint_label = "IC50"
value_reported = 45

[[record]]
compound = "COC(=O)c1ccccc1OC(C)(C)C1OCC(C/C=C\\CCC(=O)O)C(c2cccnc2)O1 (centres undefined)"
endpoint_label = "IC50"
value_reported = 66


Shifting focus to the compound that follows.
query: Quick check: IC50 on UniProt P24557, item O=C(O)CC/C=C\CC1COC(c2ccc(C(F)(F)F)cc2)OC1c1cccnc1 (centres undefined) ?
result: 44

---

- Tested System: Prostacyclin synthase (Homo sapiens)
- Sequence (Q16647 whole entry): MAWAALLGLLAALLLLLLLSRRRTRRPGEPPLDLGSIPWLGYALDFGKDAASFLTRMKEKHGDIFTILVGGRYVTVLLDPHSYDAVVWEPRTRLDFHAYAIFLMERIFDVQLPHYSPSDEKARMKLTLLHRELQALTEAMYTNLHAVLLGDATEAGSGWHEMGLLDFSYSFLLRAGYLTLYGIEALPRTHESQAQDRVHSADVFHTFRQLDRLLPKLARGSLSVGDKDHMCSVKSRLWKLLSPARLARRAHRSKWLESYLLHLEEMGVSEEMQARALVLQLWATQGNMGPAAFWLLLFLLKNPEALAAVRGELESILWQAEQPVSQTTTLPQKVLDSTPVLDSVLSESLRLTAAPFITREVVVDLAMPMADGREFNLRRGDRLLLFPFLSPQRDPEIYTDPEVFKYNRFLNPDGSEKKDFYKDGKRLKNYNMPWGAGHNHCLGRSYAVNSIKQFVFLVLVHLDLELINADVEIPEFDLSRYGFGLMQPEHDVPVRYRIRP
- Protocol Details: In vitro inhibition of Prostaglandin I2 synthase in cultured human endothelial cells
pIC50: −log10 of the molar value.
pIC50 overview

Worked cases, answers included:
[[record]]
compound = "N#Cc1ccc(C2OCC(C/C=C\\CCC(=O)O)C(c3cccnc3)O2)cc1 (stereo not drawn)"
value_reported = "< 4.00"

[[record]]
compound = "CSc1ccccc1OC(C)(C)C1OCC(C/C=C\\CCC(=O)O)C(c2cccnc2)O1 (stereo not drawn)"
value_reported = "< 4.00"


Shifting focus to the compound that follows.
query: What value of pIC50 has been recorded for this entry: CC(C)(Oc1ccc(Br)cc1)C1OCC(C/C=C\CCC(=O)O)C(c2cccnc2)O1 (stereo in doubt; 7p)
result: > 6.00

---

- Tested System: UniProtKB Q16647
- Protocol Details: In vitro inhibition of Prostaglandin I2 synthase in cultured human endothelial cells
Endpoint Label: pIC50
In plain terms, pIC50 is the concentration in mol/L turned into minus its base-10 logarithm.

query: What value of pIC50 has been recorded for this entry: Cc1ccc(OC(C)(C)C2OCC(C/C=C\CCC(=O)O)C(c3cccnc3)O2)c([N+](=O)[O-])c1 (stereo in doubt; 7w)
result: 4.48

query: One more molecule: CSc1ccc(OC(C)(C)C2OCC(C/C=C\CCC(=O)O)C(c3cccnc3)O2)cc1 (stereo not drawn)
result: 4.49

query: One more molecule: COc1ccccc1OC(C)(C)C1OCC(C/C=C\CCC(=O)O)C(c2cccnc2)O1 (stereo not drawn)
result: 4.29

query: One more molecule: CC(C)(Oc1ccc(Br)cc1)C1OCC(C/C=C\CCC(=O)O)C(c2cccnc2)O1 (stereo in doubt; 7b)
result: 5.47
